target: G-protein coupled receptor 3 (Homo sapiens, UniProt P46089); experiment: Binding affinity to N-terminal 3xHA/Nluc-tagged full-length wild-type human GPR3 expressed in HEK293A cells using vivazine as substrate measured for 180 mins by time-course saturation based NanoBRET assay; type: cell-based; conditions: HEK293-A
Sequence (P46089 whole entry): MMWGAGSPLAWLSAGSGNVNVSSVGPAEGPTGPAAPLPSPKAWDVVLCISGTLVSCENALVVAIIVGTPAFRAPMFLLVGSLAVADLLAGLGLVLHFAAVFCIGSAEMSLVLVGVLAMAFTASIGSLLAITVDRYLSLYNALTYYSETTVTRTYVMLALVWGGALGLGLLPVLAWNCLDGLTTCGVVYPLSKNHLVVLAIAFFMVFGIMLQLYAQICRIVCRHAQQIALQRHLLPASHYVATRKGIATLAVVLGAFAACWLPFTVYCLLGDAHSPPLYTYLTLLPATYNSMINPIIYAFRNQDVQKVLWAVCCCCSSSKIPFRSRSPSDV
metric_name: Activity

structure_as_smiles	study_system	metric_name	result
CC(C)Oc1cc(Cl)ccc1CNc1cc(-c2ccc(OCCCCCCNC(=O)c3ccc(-c4c5ccc(N(C)C)cc5[o+]c5cc(N(C)C)ccc45)c(C(=O)[O-])c3)cc2)nc2ncnn12	G-protein coupled receptor 3 (Homo sapiens, UniProt P46089)	Activity	Dose-Dependent Effect
CC(C)Oc1cc(Cl)ccc1CNc1cc(-c2cccc(OCCOCCOCCOCCNC(=O)c3ccc(-c4c5ccc(N(C)C)cc5[o+]c5cc(N(C)C)ccc45)c(C(=O)[O-])c3)c2)nc2ncnn12	G-protein coupled receptor 3 (Homo sapiens, UniProt P46089)	Activity	Dose-Dependent Effect
CC(C)Oc1cc(Cl)ccc1CNc1cc(-c2ccccc2OCCOCCOCCOCCNC(=O)c2ccc(-c3c4ccc(N(C)C)cc4[o+]c4cc(N(C)C)ccc34)c(C(=O)[O-])c2)nc2ncnn12	G-protein coupled receptor 3 (Homo sapiens, UniProt P46089)	Activity	Dose-Dependent Effect

###

target: G-protein coupled receptor 6 (Homo sapiens); test: Specific binding affinity to full-length wild-type human brain GPR6 expressed in HEK293A cells using furimazine as substrate measured for 3 hrs by NanoBRET assay; assay type: cell-based, HEK293-A
Sequence (P46095 whole entry): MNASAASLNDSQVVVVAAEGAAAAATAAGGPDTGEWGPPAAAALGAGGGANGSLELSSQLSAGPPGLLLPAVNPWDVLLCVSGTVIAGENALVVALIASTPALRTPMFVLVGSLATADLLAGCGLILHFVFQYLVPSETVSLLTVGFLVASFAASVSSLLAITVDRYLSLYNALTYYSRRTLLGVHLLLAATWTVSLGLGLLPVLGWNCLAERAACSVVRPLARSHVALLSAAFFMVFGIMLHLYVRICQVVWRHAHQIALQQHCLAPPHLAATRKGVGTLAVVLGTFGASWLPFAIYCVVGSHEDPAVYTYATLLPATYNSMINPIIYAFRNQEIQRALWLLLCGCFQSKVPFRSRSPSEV
metric_name: Kd
Record the result as number plus unit.

Give the measured Kd of CC(C)Oc1cc(Cl)ccc1CNc1cc(-c2ccccc2OCCCCCCNC(=O)c2ccc(-c3c4ccc(N(C)C)cc4[o+]c4cc(N(C)C)ccc34)c(C(=O)[O-])c2)nc2ncnn12 . 66.1 nM

###

target: G-protein coupled receptor 3 (Homo sapiens); test: Binding affinity to N-terminal 3xHA/Nluc-tagged full-length wild-type human GPR3 expressed in HEK293A cells using vivazine as substrate measured for 180 mins by time-course saturation based NanoBRET assay; assay type: cell-based, HEK293-A
metric_name: Kd (nM)
The response must be a number in nM with no trailing unit.

What Kd appears in the records for this compound with G-protein coupled receptor 3 (Homo sapiens)? CC(C)Oc1cc(Cl)ccc1CNc1cc(-c2ccccc2OCCCCCCNC(=O)c2ccc(-c3c4ccc(N(C)C)cc4[o+]c4cc(N(C)C)ccc34)c(C(=O)[O-])c2)nc2ncnn12 102

###

target: G-protein coupled receptor 3 (Homo sapiens); assay: Total binding affinity to N-terminal 3xHA/Nluc-tagged full-length wild-type human GPR3 expressed in HEK293A cells using furimazine as substrate measured for 3 hrs by NanoBRET assay; type: cell-based, HEK293-A
pEC50: −log10 of the molar value.
Recorded pEC50, one value per entry.

Consider the reported pEC50 for these compounds:
compound	study_system	result
COCC[N+]1=C(/C=C/C=C2/N(CCCCCC(=O)NCCOCCOCCOCCOc3ccc(-c4cc(NCc5ccc(Cl)cc5OC(C)C)n5ncnc5n4)cc3)c3ccc(S(=O)(=O)O)cc3C2(C)CCCS(=O)(=O)O)C(C)(CCCS(=O)(=O)O)c2cc(S(=O)(=O)[O-])ccc21 (stereo not drawn)	G-protein coupled receptor 3 (Homo sapiens)	< 4.50
CC(C)Oc1cc(Cl)ccc1CNc1cc(-c2cccc(OCCOCCOCCOCCNC(=O)c3ccc(-c4c5ccc(N(C)C)cc5[o+]c5cc(N(C)C)ccc45)c(C(=O)[O-])c3)c2)nc2ncnn12	G-protein coupled receptor 3 (Homo sapiens)	< 5.00

For CC(C)Oc1cc(Cl)ccc1CNc1cc(-c2ccccc2OCCOCCOCCOCCNC(=O)CCCCCN2/C(=C/C=C/C3=[N+](CCOO)c4ccc(S(=O)(=O)O)cc4C3(C)CCCS(=O)(=O)[O-])C(C)(CCCS(=O)(=O)O)c3cc(S(=O)(=O)O)ccc32)nc2ncnn12 (stereo not drawn) , what is its reported pEC50? < 4.50
